# TGI listing for each entry below
- System: 786-0 renal
- experiment: NCI tumour cell line growth inhibition, 48 h

input: What value of TGI has been recorded for this entry: `C=C(CC)C[C@@H]1C[C@]2(C(=O)OC)c3[nH]c4ccccc4c3CCN2C1=O`
output: 33.5 µM

input: What value of TGI has been recorded for this entry: `CCOC(=O)c1ccc(Nc2cnc3ccc(C(F)(F)F)cc3n2)cc1`
output: 26.8 µM

input: What value of TGI has been recorded for this entry: `COc1cc2c(cc1OCCCCN1CCN(CCCCOc3cc4c(cc3OC)C(=O)N3CCC[C@H]3C=N4)CC1)N=C[C@@H]1CCCN1C2=O`
output: 41.1 µM

New cases:
input: What value of TGI has been recorded for this entry: CC1=C(C(=O)NC(C)(C)C)CC(C(=O)NC(C)(C)C)C(C)N1 (stereo unspecified)
output: > 100 µM

input: What value of TGI has been recorded for this entry: `CC(C)(CN)SCc1ccccc1`
output: > 100 µM

input: What value of TGI has been recorded for this entry: `O=C1NC(SCc2ccc(F)cc2)=N/C1=C/c1cccc(OCc2ccc(Cl)cc2)c1`
output: 8.8 µM

input: What value of TGI has been recorded for this entry: CC/C=C/C(/C=C/C[C@]1(CC)C[C@H](CC)[C@H](CC(=O)O)OO1)CC (stereo partly specified)
output: 3.32 µM

input: What value of TGI has been recorded for this entry: `Clc1ccc(/C=C/c2nc(Cl)c(-c3ccc(Cl)cc3)c(Cl)n2)cc1`
output: > 100 µM

input: What value of TGI has been recorded for this entry: CC(=O)NC1C(OCc2ccccc2)OC(CO)C(O)C1OCC(=O)N1CCCC1C(=O)NC(CCC(=O)NCCCCCNc1c2ccccc2nc2cccc([N+](=O)[O-])c12)C(N)=O (stereo unspecified)
output: 0.924 µM

input: What value of TGI has been recorded for this entry: C=CCC1C2CCC(O[Si](C(C)C)(C(C)C)C(C)C)(C(C(=O)OC)C2)C1O (stereo unspecified)
output: > 100 µM

input: What value of TGI has been recorded for this entry: `Cc1ccccc1NC(=O)c1cc2ccccc2cc1O`
output: > 100 µM

====

# TGI listing for each entry below
- System: HCT-116 colon
- experiment: NCI tumour cell line growth inhibition, 48 h

Answered cases to consult:
input: What value of TGI has been recorded for this entry: `CC1=C(C)C(=O)C(C2=C(C3=CC(=O)C(C)=C(C)C3=O)C(=O)c3ccccc3C2=O)=CC1=O`
output: 5.31 µM

input: What value of TGI has been recorded for this entry: CC1(C)CC2(C)ON=C(c3ccccc3)N2c2ccccc2N1 (centres undefined)
output: 28 µM

input: What value of TGI has been recorded for this entry: COc1ccc(C2C(Cl)C(=O)N2NC(=O)c2ccccc2O)cc1OC (centres undefined)
output: > 100 µM

input: What value of TGI has been recorded for this entry: Cc1ccc(-n2cc(-c3ccc(Cl)cc3)c3c2N=CN2NC(c4cccs4)=NC32)cc1 (centres undefined)
output: 22 µM

input: What value of TGI has been recorded for this entry: CCOC(=O)NC(=S)NC(C)c1ccccc1 (centres undefined)
output: > 100 µM

input: What value of TGI has been recorded for this entry: C=C(C)C(=O)O[C@H]1CC2=CC(CC(C)=C[C@H]3OC(=O)C(=C)C13)OC2=O (some centres undefined)
output: 24.2 µM

New cases:
input: What value of TGI has been recorded for this entry: `O=c1oc2c(ccc3c(O)cccc32)c2c1CCCC2`
output: > 100 µM

meta.source: PubChem BioAssay (NCI)
